Answer each item with its documented abundance fitness.
B1: Calcium-binding protein 2, residues 155 to 219; numbered along this chain, Q9NPB3 (parent)
chain: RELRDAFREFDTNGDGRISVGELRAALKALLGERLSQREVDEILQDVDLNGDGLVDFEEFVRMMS

Variants of: B1
method-notes: abundance fitness (aPCA) (normalised: wild type 0, dead -1); higher = more abundant; growth selection in yeast, the domain comes from the species named
experimental-parameters: Homo sapiens
Give bare numbers.

Recorded results for 2 variants are shown here.
Suppose we examine the variant RELRDAFREFDTNGDGRISVGELRAALKALLGERLSQREVDESLQDVDLNGDGLVDFEEFVRMMS [I43S] ; what abundance fitness value has been reported?
0.08

Request: RELRDAFREFDTNGDGRISVGELRAALKALLGERLSQREVDEILQDVDLNGDGLVDFTEFVRMMS [E58T]
-0.088

Each variant below has a reported value. Please supply its abundance fitness.
1. RELRDAFREFDTNGDGRISVGELRAALKALLGERLSQREVDEILQDVDLNGDGLVDFEEFVRMNS [M64N]
2. RELRDAFREFDMNGDGRISVGELRAALKALLGERLSQREVDEILQDVDLNGDGLVDFEEFVRMMS [T12M]
3. RELRDAFREFTTNGDGRISVGELRAALKALLGERLSQREVDEILQDVDLNGDGLVDFEEFVRMMS [D11T]

[0.171, -0.349, -0.769]
